System: corn earworm (Helicoverpa zea)
Test: Insecticidal test on treated lepidopteran diet, corn earworm
Format: in vivo
Details: 120 h; second-instar larvae on treated diet, 8 wells; dose of 50 mg/cm^2 [sic] (2000 ppm, 50 μL); dead insects counted 5 days after treatment; read-out: AVG HELIZE 50 (percent control, corn ear worm)
Procedure: The compounds identified in Table 1 were prepared according to the previous methods and were tested against beet armyworm and corn earworm as follows: Insecticidal Test for Corn Earworm (Helicoverpa zea) and Beet Armyworm (Spodoptera exigua). To prepare test solution, the test compound was formulated at 2000 ppm solution as 4 mg/2 mL of 9 acetone:1 tap water. […]
parameter_measured: pest or weed control at 2000 µg/mL (%)

[
  {
    "smiles": "CCOc1nc(N/N=C/c2cccc(C(F)(F)F)c2)nc(Nc2cccc(C(F)(F)F)c2)n1",
    "reported_measurement": 75
  },
  {
    "smiles": "Fc1ccc(Nc2nc(NCc3ccc(Cl)nc3)nc(N/N=C/c3cccc(C(F)(F)F)c3)n2)cc1C(F)(F)F",
    "reported_measurement": 100
  },
  {
    "smiles": "FC(F)C(F)(F)Oc1cccc(/C=N/Nc2nc(Nc3cccc(OC(F)(F)F)c3)nc(N3CCOCC3)n2)c1",
    "reported_measurement": 100
  },
  {
    "smiles": "CCOc1nc(N/N=C/c2ccc(OC(F)(F)F)cc2)nc(Nc2ccc(OC(F)(F)F)cc2)n1",
    "reported_measurement": 25
  }
]
